Molecular target: T1, CTLA-4-hFc (immunogen A; hFc-labeled CTLA-4 extracellular domain protein) (human, UniProt P16410 36-161)
T1 construct: range 36-161; Made in HEK293 cells, purified on protein A; also called CLTA-4-hFc; CTLA-4 protein; not shown: human IgG Fc fragment (hFc) of the pCpC vector
T1 sequence (looked up): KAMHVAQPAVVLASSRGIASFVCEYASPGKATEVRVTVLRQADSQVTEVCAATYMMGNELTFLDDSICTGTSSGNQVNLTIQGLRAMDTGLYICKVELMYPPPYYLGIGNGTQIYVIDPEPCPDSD
Assay: blocking assay, CTLA-4 protein, competitor B7.1
Listing: % Block at 0.0128 nM of selected binders

{"Binder": "40C4C6 fully human CTLA-4 antibody (human IgG1, kappa) (antibody, V domains shown, also called mAb09; mAb009) VH: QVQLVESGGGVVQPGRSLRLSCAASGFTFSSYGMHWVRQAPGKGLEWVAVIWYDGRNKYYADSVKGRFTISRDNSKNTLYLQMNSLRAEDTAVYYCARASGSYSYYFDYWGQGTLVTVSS VL: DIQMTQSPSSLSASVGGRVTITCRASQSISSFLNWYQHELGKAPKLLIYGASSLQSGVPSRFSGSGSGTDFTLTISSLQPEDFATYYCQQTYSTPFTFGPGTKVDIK", "% Block at 0.0128 nM [%]": 9.3}
{"Binder": "92C8B6 fully human CTLA-4 antibody (human IgG1, kappa) (antibody, V domains shown, also called mAb42; mAb042) VH: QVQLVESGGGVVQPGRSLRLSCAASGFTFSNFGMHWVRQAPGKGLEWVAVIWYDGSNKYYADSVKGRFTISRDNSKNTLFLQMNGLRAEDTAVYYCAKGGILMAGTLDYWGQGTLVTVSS VL: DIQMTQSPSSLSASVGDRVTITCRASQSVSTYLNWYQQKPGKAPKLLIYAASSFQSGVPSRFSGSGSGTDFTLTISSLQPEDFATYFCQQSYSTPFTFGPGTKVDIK", "% Block at 0.0128 nM [%]": 5.3}
{"Binder": "97A8D1 fully human CTLA-4 antibody (human IgG1, kappa) (antibody, V domains shown, also called mAb49; mAb049) VH: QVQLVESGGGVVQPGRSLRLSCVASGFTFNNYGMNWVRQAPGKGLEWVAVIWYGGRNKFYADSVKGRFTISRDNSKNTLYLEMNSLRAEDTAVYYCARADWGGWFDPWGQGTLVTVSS VL: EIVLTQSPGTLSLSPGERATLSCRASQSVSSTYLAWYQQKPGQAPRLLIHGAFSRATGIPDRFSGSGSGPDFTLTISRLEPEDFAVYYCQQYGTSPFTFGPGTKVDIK", "% Block at 0.0128 nM [%]": 6.1}
{"Binder": "31C12F3 fully human CTLA-4 antibody (human IgG1, kappa) (antibody, V domains shown, also called mAb010) VH: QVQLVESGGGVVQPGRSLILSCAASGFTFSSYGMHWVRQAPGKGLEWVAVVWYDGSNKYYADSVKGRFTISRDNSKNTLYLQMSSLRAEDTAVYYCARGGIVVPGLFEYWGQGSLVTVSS VL: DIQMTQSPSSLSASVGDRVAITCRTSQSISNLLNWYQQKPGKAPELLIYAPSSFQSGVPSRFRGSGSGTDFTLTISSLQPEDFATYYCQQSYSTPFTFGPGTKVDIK", "% Block at 0.0128 nM [%]": 5.1}
